target: human GPR40 (Homo sapiens, UniProt O14842); construct: expressed in transfected cells; assay: Inositol Phosphate Turnover (IP1) Assay; assay type: cell-based; details: HEK cells stably expressing human GPR40, 7500 cells per well, CisBio IP-One kit
Sequence (O14842 whole entry): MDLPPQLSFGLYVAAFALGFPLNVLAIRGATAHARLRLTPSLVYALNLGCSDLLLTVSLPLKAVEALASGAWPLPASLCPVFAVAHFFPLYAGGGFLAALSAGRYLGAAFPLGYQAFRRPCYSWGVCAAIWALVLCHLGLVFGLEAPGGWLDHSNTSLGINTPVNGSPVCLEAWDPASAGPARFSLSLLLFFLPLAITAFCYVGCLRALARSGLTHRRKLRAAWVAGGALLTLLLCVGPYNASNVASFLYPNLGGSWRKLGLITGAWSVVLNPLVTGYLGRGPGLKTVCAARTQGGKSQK
MEASURE NAME: EC50

>>> recorded_measurement("C[C@H](C(=O)O)[C@H](c1ccc2c(c1)OC(C1CC3CC1CN3[C@H](C)c1cc(C(F)(F)F)ccc1C(F)(F)F)CC2)C1CC1 (stereo partly drawn)")
"0.688 nM"
>>> recorded_measurement("C[C@H](C(=O)O)[C@H](c1ccc2c(c1)OC(C1[C@@H]3CC[C@H]1CN([C@@H](C)c1cc(F)ccc1C(F)(F)F)C3)CC2)C1CC1 (single isomer, unassigned) [Example 29]")
"72.8 nM"
>>> recorded_measurement("C[C@H](C(=O)O)[C@H](c1ccc2c(c1)OC(C1C3COCC1CN([C@H](C)c1cc(C(F)(F)F)ccc1C(F)(F)F)C3)CC2)C1CC1 (stereo partly drawn) [Example 4]")
"36.6 nM"
>>> recorded_measurement("C[C@H](C(=O)O)[C@H](c1ccc2c(c1)OC(C1C3COCC1CN([C@@H](C)c1cc(C(F)(F)F)ccc1C(F)(F)F)C3)CC2)C1CC1 (stereo partly drawn) [Example 5]")
"33.8 nM"
>>> recorded_measurement("C[C@H](C(=O)O)[C@H](c1ccc2c(c1)OC(C1CC3CC1CN3[C@@H](C)c1cc(F)ccc1C(F)(F)F)CC2)C1CC1 (stereo partly drawn) [Example 18]")
"4.2 nM"
>>> recorded_measurement("C[C@H](C(=O)O)[C@H](c1ccc2c(c1)OC(CC1CCN([C@H](C)c3cc(C(F)(F)F)ccc3C(F)(F)F)CC1)CC2)C1CC1 (mixture of isomers) [Example 9]")
"63.7 nM"
